Below, each of the compounds is paired with its reported HDAC6 selectivity (fold) value.
Target: human recombinant HDAC6 (Homo sapiens, UniProt Q9UBN7)
Construct: purchased Calbiochem Inc. 382180
Experiment: HDAC enzyme activity inhibition assay (HDAC Fluorimetric Drug Discovery Kit), HDAC6
Assay type: biochemical
Settings: HDAC1 vs HDAC6

Example entries and their recorded answers appear below.
O=C(N(Cc1ccc(-c2nnc(C(F)F)o2)cn1)c1cccc(F)c1)C1(F)CN(C2CCSCC2)C1 : 2,192 fold
CCCC(=O)N1CC(F)(C(=O)N(Cc2ccc(-c3nnc(C(F)F)o3)cn2)c2cccc(F)c2)C1 : 2,066 fold
CC(C)CN1CCC(N2CC(F)(C(=O)N(Cc3ccc(-c4nnc(C(F)F)o4)cn3)c3cccc(F)c3)C2)CC1 : 911 fold
CCC(=O)N1CCC(F)(C(=O)N(Cc2ccc(-c3nnc(C(F)F)o3)cc2F)c2ccccc2)CC1 : 238 fold
O=C(C1CCCC1)N1CC(F)(C(=O)N(Cc2ccc(-c3nnc(C(F)F)o3)cn2)c2ccccc2)C1 : 1,466 fold
O=C(N(Cc1ccc(-c2nnc(C(F)F)o2)cn1)c1cccc(F)c1)C1(F)CN(C2CN(C3CCCC3)C2)C1 : 1,618 fold
O=C(N(Cc1ccc(-c2nnc(C(F)F)o2)cn1)c1cccc(F)c1)C1(F)CN(C2CCCCC2)C1 : 668 fold
CCCN1CCC(N2CC(F)(C(=O)N(Cc3ccc(-c4nnc(C(F)F)o4)cn3)c3cccc(F)c3)C2)CC1 : 1,951 fold
O=C(N(Cc1ccc(-c2nnc(C(F)F)o2)cn1)c1cccc(F)c1)C1(F)CN(CC2CCCCC2)C1 : 741 fold
O=C(N(Cc1ccc(-c2nnc(C(F)F)o2)cn1)c1cccc(F)c1)C1(F)CN(C2CCN(C3CCC3)CC2)C1 : 771 fold

IN: State the recorded HDAC6 selectivity (fold) for this entry: "O=C(N(Cc1ccc(-c2nnc(C(F)F)o2)cn1)c1ccccc1)C1(F)CN(C2CCOCC2)C1"
OUT: 1,157 fold

IN: State the recorded HDAC6 selectivity (fold) for this entry: "CCN1CC(F)(C(=O)N(Cc2ccc(-c3nnc(C(F)F)o3)cn2)c2ccccc2)C1"
OUT: 1,000 fold

====

Target: human recombinant HDAC6 (Homo sapiens, UniProt Q9UBN7)
Sequence (Q9UBN7 1-1215): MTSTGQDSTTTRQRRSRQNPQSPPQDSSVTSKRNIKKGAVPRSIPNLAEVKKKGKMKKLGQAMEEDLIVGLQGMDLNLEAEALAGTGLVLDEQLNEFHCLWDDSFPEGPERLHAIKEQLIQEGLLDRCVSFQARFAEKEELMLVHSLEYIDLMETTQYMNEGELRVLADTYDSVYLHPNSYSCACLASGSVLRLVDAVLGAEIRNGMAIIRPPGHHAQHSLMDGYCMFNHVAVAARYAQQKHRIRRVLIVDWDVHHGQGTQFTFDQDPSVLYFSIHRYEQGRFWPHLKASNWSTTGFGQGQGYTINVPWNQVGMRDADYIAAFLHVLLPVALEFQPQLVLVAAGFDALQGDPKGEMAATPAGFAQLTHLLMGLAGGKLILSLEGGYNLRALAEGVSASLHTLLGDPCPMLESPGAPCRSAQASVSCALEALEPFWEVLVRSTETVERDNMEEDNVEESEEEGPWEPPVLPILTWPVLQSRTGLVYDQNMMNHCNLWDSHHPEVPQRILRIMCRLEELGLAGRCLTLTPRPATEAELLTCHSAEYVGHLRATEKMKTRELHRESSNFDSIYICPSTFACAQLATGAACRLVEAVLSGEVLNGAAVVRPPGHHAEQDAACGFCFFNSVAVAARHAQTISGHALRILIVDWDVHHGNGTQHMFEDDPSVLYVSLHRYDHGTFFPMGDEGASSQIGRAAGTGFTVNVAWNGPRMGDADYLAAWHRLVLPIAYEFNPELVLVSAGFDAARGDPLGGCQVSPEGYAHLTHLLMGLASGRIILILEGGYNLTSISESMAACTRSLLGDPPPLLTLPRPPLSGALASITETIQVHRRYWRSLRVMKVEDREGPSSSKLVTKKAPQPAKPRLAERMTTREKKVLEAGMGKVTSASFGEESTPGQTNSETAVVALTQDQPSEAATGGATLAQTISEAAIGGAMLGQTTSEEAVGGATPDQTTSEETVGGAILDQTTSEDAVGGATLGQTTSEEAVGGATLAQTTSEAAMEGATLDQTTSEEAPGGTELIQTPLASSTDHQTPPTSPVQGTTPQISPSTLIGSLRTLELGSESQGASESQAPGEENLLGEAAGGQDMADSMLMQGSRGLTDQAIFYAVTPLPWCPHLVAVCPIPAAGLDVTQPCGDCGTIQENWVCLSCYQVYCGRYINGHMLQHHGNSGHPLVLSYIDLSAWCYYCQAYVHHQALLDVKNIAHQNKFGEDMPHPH
Test: HDAC enzyme activity inhibition assay (HDAC Fluorimetric Drug Discovery Kit), HDAC6
Conditions: human recombinant HDAC6, same protocol as HDAC1
Value type: IC50 (nM)
Answer format: numeric, nM implied, no suffix.

O=C(C1CCC1)N1CC(F)(C(=O)N(Cc2ccc(-c3nnc(C(F)F)o3)cn2)c2ccccc2)C1 [Compound 3159] : 30.3

IN: State the recorded IC50 for this entry: CC(=O)N1CCC(F)(C(=O)N(Cc2ccc(-c3nnc(C(F)F)o3)cc2F)c2ccccc2)CC1 [Compound 3438]
OUT: 166

IN: State the recorded IC50 for this entry: O=C(N(Cc1ccc(-c2nnc(C(F)F)o2)cn1)c1cccc(F)c1)C1(F)CN(C2CCCCC2)C1 [Compound 3053]
OUT: 74.8

IN: State the recorded IC50 for this entry: CC(C)N1CCC(F)(C(=O)N(Cc2ccc(-c3nnc(C(F)F)o3)cn2)c2cccc(F)c2)CC1 [Compound 2970]
OUT: 47.8

IN: State the recorded IC50 for this entry: O=C(N(Cc1ccc(-c2nnc(C(F)F)o2)cn1)c1cccc(F)c1)C1(F)CN(C2CCN(C3CCOC3)CC2)C1 (stereo not drawn) [Compound 3408]
OUT: 32.6

IN: State the recorded IC50 for this entry: CC(C)CN1CC(F)(C(=O)N(Cc2ccc(-c3nnc(C(F)F)o3)cn2)c2ccccc2)C1 [Compound 3004]
OUT: 28.4

IN: State the recorded IC50 for this entry: O=C(N(Cc1ccc(-c2nnc(C(F)F)o2)cn1)c1cccc(F)c1)C1(F)CN(C2CN(C3CCOCC3)C2)C1 [Compound 3399]
OUT: 20.1

IN: State the recorded IC50 for this entry: CC(C)CN1CC(F)(C(=O)N(Cc2ccc(-c3nnc(C(F)F)o3)cn2)c2cccc(F)c2)C1 [Compound 3093]
OUT: 32.4

IN: State the recorded IC50 for this entry: O=C(N(Cc1ccc(-c2nnc(C(F)F)o2)cn1)c1ccccc1)C1(F)CN(C2CCC2)C1 [Compound 2975]
OUT: 48.9

IN: State the recorded IC50 for this entry: CC(=O)N1CC(F)(C(=O)N(Cc2ccc(-c3nnc(C(F)F)o3)cn2)c2ccccc2)C1 [Compound 3152]
OUT: 36.3

IN: State the recorded IC50 for this entry: O=C(N(Cc1ccc(-c2nnc(C(F)F)o2)cn1)c1ccccc1)C1(F)CCN(C2CCC2)CC1 [Compound 2953]
OUT: 80.9

====

Target: human recombinant HDAC6 (Homo sapiens, UniProt Q9UBN7)
Assay: HDAC enzyme activity inhibition assay (HDAC Fluorimetric Drug Discovery Kit), HDAC6
Details: human recombinant HDAC6, same protocol as HDAC1
Protocol: For the HDAC1 enzyme activity test, human recombinant HDAC1 (BML-SE456) was used as an enzyme source and Fluor de Lys©-SIRT1 (BNL-K1177) was used as a substrate. […] Next, Fluor de Lys© Developer II (BML-K1176) was added and reacted for 30 minutes to complete the reaction, and then the fluorescence values (Ex 360, Em 460) were measured using a multi-plate reader (Flexstation 3, Molecular Device). […]
Value type: pIC50
Units for pIC50: none; it is -log10 of a concentration expressed in mol/L.

IN: State the recorded pIC50 for this entry: O=C(N(Cc1ccc(-c2nnc(C(F)F)o2)cn1)c1cccc(F)c1)C1(F)CN(C2CCN(C3CCCC3)CC2)C1 [Compound 3407]
OUT: 7.73

IN: State the recorded pIC50 for this entry: CCC(=O)N1CC(F)(C(=O)N(Cc2ccc(-c3nnc(C(F)F)o3)cn2)c2ccccc2)C1 [Compound 3153]
OUT: 7.43

IN: State the recorded pIC50 for this entry: CC(C)N1CC(F)(C(=O)N(Cc2ccc(-c3nnc(C(F)F)o3)cn2)c2cccc(F)c2)C1 [Compound 3048]
OUT: 7.11

IN: State the recorded pIC50 for this entry: CCCN1CC(F)(C(=O)N(Cc2ccc(-c3nnc(C(F)F)o3)cn2)c2ccccc2)C1 [Compound 3002]
OUT: 7.28

====

Below, each of the compounds is paired with its reported pIC50 value.
Target: human recombinant HDAC1 (Homo sapiens, UniProt Q13547)
Sequence (Q13547 whole entry): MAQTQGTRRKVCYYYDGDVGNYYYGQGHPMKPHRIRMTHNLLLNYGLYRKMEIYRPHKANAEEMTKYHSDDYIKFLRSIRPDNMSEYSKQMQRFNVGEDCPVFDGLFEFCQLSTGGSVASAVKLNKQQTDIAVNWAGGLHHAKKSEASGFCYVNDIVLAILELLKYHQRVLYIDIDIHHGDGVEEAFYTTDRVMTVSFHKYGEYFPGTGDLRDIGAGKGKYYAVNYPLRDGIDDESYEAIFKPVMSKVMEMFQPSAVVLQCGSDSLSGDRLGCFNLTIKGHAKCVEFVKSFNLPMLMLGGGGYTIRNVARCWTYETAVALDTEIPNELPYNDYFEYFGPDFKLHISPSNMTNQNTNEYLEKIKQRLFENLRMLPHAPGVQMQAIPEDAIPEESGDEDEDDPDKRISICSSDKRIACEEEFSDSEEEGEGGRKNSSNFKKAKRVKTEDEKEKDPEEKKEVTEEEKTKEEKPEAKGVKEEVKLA
Assay: HDAC enzyme activity inhibition assay (HDAC Fluorimetric Drug Discovery Kit), HDAC1
Conditions: human recombinant HDAC1, Fluor de Lys-SIRT1 substrate, 30° C. 60 minutes
pIC50: −log10 of the molar value.

Example entries and their recorded answers appear below.
O=C(N(Cc1ccc(-c2nnc(C(F)F)o2)cn1)c1cccc(F)c1)C1(F)CN(C2CCN(C3CCCCC3)CC2)C1 : < 4.30
CCCN1CC(F)(C(=O)N(Cc2ccc(-c3nnc(C(F)F)o3)cn2)c2cccc(F)c2)C1 : < 4.30
O=C(N(Cc1ccc(-c2nnc(C(F)F)o2)cn1)c1cccc(F)c1)C1(F)CN(C2CN(C3CCOCC3)C2)C1 : 4.50
CCCN1CCC(N2CC(F)(C(=O)N(Cc3ccc(-c4nnc(C(F)F)o4)cn3)c3cccc(F)c3)C2)CC1 : 4.35
CN1CCC(F)(C(=O)N(Cc2ccc(-c3nnc(C(F)F)o3)cn2)c2cccc(F)c2)CC1 : < 4.30
CN1CCC(F)(C(=O)N(Cc2ccc(-c3nnc(C(F)F)o3)cc2F)c2ccccc2)CC1 : < 4.70
O=C(N(Cc1ccc(-c2nnc(C(F)F)o2)cn1)c1cccc(F)c1)C1(F)CN(C2CCCC2)C1 : < 4.30
CCN1CC(N2CC(F)(C(=O)N(Cc3ccc(-c4nnc(C(F)F)o4)cn3)c3cccc(F)c3)C2)C1 : < 4.30

IN: State the recorded pIC50 for this entry: "O=C(N(Cc1ccc(-c2nnc(C(F)F)o2)cn1)c1cccc(F)c1)C1(F)CN(C2COC2)C1"
OUT: < 4.30

IN: State the recorded pIC50 for this entry: "CC(C)N1CCC(N2CC(F)(C(=O)N(Cc3ccc(-c4nnc(C(F)F)o4)cn3)c3ccccc3)C2)CC1"
OUT: < 4.30

The measured values listed here are drawn from patent US20230278995A1.
